test system: MDA-MB-231 breast; experiment: NCI tumour cell line growth inhibition, 48 h
Below: a set of entries, each annotated with reported TGI.
parameter: TGI

# compound, observed
records = [
    ("Nc1cc2c(nnn2C2OC(COCc3ccccc3)C(OCc3ccccc3)C2OCc2ccccc2)c(=O)[nH]1 (stereo not given)", "> 100 µM"),
    ("CC(=O)N1CN2C(=O)CCC2c2ccccc21 (stereo not given)", "> 100 µM"),
    ("COc1ccc(/C=C2\\C(=O)N(C)C(=O)c3cc(OC)c(OC)cc32)cc1OC", "> 100 µM"),
    ("CCOC(=O)/C(=N\\OC)C(O)C(F)(F)F (stereo not given)", "> 100 µM"),
    ("O=C(NCCCCN(CCCNC(=O)C(F)(F)F)Cc1ccc2ccccc2c1)C(F)(F)F", "31.1 µM"),
]
